- System: P. falciparum male gametocytes
- METHOD_DESCRIPTION: P. falciparum Dual Gamete Formation Assay (PfDGFA), male readout (exflagellation)
- Type: cell-based, Plasmodium falciparum NF54
- ASSAY_SETUP: 2µM, 24h preincubation with gametocytes prior to induction of gametogenesis; replicate R4
VALUE_TYPE: % inhibition male (individual replicates) R4

# COMPOUND, MEASURED_VALUE
measured = [
    ("COc1cc2ccccc2cc1OCCCN1CCN(CC(c2ccc(F)cc2)N2CCN(C(C)C)CC2)CC1.Cl (stereo not shown) [TCMDC-135496]", "18.2%"),
    ("Cl.c1ccc2c(NCCCCCCCCCNc3ccnc4ccccc34)ccnc2c1 [TCMDC-137750]", "84.2%"),
    ("NC1CCN(Cc2ccc(-c3ccc(-c4nc5ccccc5[nH]4)cc3)cc2)C1.O=C(O)C(F)(F)F (stereo not shown) [TCMDC-133868]", "71.6%"),
    ("COc1ccc2nc(-c3ccccc3)cc(NCCCNc3cc(-c4ccccc4)nc4ccc(OC)cc34)c2c1.Cl [TCMDC-137734]", "18.2%"),
    ("O=C(O)C(F)(F)F.O=[N+]([O-])c1cccc(CNCC2CCN(Cc3ccc(-c4ccccc4)cc3)CC2)c1 [TCMDC-141208]", "53.6%"),
    ("Cc1nc2nc(N)nc(N)c2c(C)c1Cc1ccccc1Cl.Cl [TCMDC-137668]", "-27.1%"),
    ("NS(=O)(=O)c1cccc(Nc2nc(N[C@@H]3CCNC3)nc3cc[nH]c(=O)c23)c1.O=C(O)C(F)(F)F [TCMDC-135057]", "-11.4%"),
    ("CN(CCN)Cc1ccc(-c2ccc(-c3nc4cc(C(F)(F)F)ccc4[nH]3)s2)cc1.O=C(O)C(F)(F)F [TCMDC-132821]", "-7.6%"),
    ("CN1CCN(Cc2nc(-c3ccc4c(Nc5ccc(Oc6ccccc6)cc5)ccnc4c3)cs2)CC1 [TCMDC-138409]", "56.9%"),
    ("COc1cc(C(=O)NC2CCN(Cc3ccccc3)CC2)ccc1-c1nc2cc(Cl)c(Cl)cc2[nH]1 [TCMDC-140078]", "2.9%"),
    ("CC(=O)Nc1ccc2[nH]cc(C3CCN(CC4CCC(NC(=O)/C=C/c5ccc(Cl)c(Cl)c5)CC4)CC3)c2n1 (stereo not shown) [TCMDC-140114]", "57.6%"),
    ("Cl.Clc1ccc(CNCCCCCCCNCc2ccc(Cl)c(Cl)c2)cc1Cl [TCMDC-138075]", "51.1%"),
    ("Br.CC(C)(Cc1ccc(Cl)cc1)NCCCCCCNCCc1ccc(O)c(O)c1 [TCMDC-131277]", "31.6%"),
    ("COc1cc(Br)c(S(=O)(=O)n2cc(CN3CCC(N)CC3)c3cc(Cl)ccc32)cc1OC.O=C(O)C(F)(F)F [TCMDC-136384]", "29.6%"),
    ("O=C(c1ccc([N+](=O)[O-])o1)N1CCN(c2nc3c(F)cc(F)cc3s2)CC1 [TCMDC-125149]", "-11.8%"),
    ("CCc1nc(N)nc(N)c1CCCOc1ccccc1Cl.Cl [TCMDC-137928]", "-29.1%"),
]

---

- Tested on: P. falciparum male gametocytes
- METHOD_DESCRIPTION: P. falciparum Dual Gamete Formation Assay (PfDGFA), male readout (exflagellation)
- Assay type: cell-based, Plasmodium falciparum NF54
- ASSAY_SETUP: PfDGFA, 24 h incubation with gametocytes before induction, exflagellation readout; read-out: Male IC50
# IC50 per record follows
VALUE_TYPE: IC50 (nM)

# STRUCTURE_AS_SMILES, SYSTEM_TESTED, VALUE_TYPE, SCALE_UNIT, MEASURED_VALUE
rows = [
    ("COc1cc2nc(N3CCC(CNCc4ccc(-c5ccc(C(F)(F)F)cc5)cc4)CC3)nc(N)c2cc1OC", "P. falciparum male gametocytes", "IC50", "nM", 220),
    ("CCCOc1ccc2ccccc2c1CNCCCCCCNCc1c(OCCC)ccc2ccccc12.CS(=O)(=O)O", "P. falciparum male gametocytes", "IC50", "nM", 1940),
    ("COc1ccc(C[C@H](N)C(=O)N[C@H]2[C@@H](O)[C@H](n3cnc4c(N(C)C)ncnc43)O[C@@H]2CO)cc1.Cl", "P. falciparum male gametocytes", "IC50", "nM", 410),
    ("COc1ccc(CNC2CCN(C)CC2)cc1-c1ccc(S(=O)(=O)NCc2ccccc2)c(F)c1.O=C(O)C(F)(F)F", "P. falciparum male gametocytes", "IC50", "nM", 1850),
]

---

Entries and their IC50
- Test system: P. falciparum male gametocytes
- METHOD_DESCRIPTION: P. falciparum Dual Gamete Formation Assay (PfDGFA), male readout (exflagellation)
- Assay type: cell-based, Plasmodium falciparum NF54
- ASSAY_SETUP: this study; read-out: Pf DGFA IC50 MALE
VALUE_TYPE: IC50 (nM)

# COMPOUND, MEASURED_VALUE
rows = [
    ("Br.c1cc(C2=NC3CCCCC3N2)ccc1OCCCOc1ccc(C2=NC3CCCCC3N2)cc1 (centres unmarked)", 1130),
    ("CNC(=O)c1ccccc1Nc1nc(Nc2ccc(N3CCOCC3)cc2)ncc1Cl.Cl", 180),
    ("Cc1cc(C(=O)OCC(=O)Nc2c(C)n(C)n(-c3ccccc3)c2=O)c(C)n1-c1ccc(F)cc1", 1900),
    ("O=c1c(Br)ccccc1Br", 150),
    ("FC(F)(F)c1ccc2[nH]c(-c3ccc(-c4cccc(CNCCN5CCNCC5)c4)cc3)nc2c1.O=C(O)C(F)(F)F", 1640),
]

---

- Test system: P. falciparum female gametocytes
- METHOD_DESCRIPTION: P. falciparum Dual Gamete Formation Assay (PfDGFA), female readout (Pfs25-positive female gametes)
- Assay type: cell-based, Plasmodium falciparum NF54
- ASSAY_SETUP: 2µM, 24h preincubation with gametocytes; replicate R3
VALUE_TYPE: % inhibition female (individual replicates) R3 (%)

# COMPOUND, SCALE_UNIT, MEASURED_VALUE
rows = [
    ("C#CCOc1ccc2ccccc2c1CNCCCCCCNCc1c(OCC#C)ccc2ccccc12.CS(=O)(=O)O", "%", 36.7),
    ("COc1ccc(CCNCCCCCCNCCc2ccc(-c3ccccc3)cc2)cc1OC.Cl", "%", 51.6),
    ("CCCCCCC(N)c1ccc(OCCCOc2ccc(C(N)CCCCCC)cc2)cc1.Cl (centres unmarked)", "%", 53.9),
    ("Cl.O=S(=O)(Nc1cc2c(cc1OCCCN1CCCCC1)CCNCC2)c1ccc(-c2ccc(Cl)cc2)cc1", "%", 44.2),
    ("CS(=O)(=O)O.CSc1ccc2ccccc2c1CCNCCCCNCCc1c(SC)ccc2ccccc12", "%", 28.5),
    ("CS(=O)(=O)O.FC(F)(F)COc1ccc2ccccc2c1CNCCCCCCNCc1c(OCC(F)(F)F)ccc2ccccc12", "%", 26.9),
    ("S=C(NN=Cc1ccccn1)NC1CC2C=CC1C2 (centres unmarked)", "%", 45.5),
    ("COc1cc2nc(N3CCC(CNC(=O)c4ccc(-c5ccc(-c6noc(C)n6)cc5)cc4)CC3)nc(N)c2cc1OC", "%", 47.5),
]

---

- Tested on: P. falciparum male gametocytes
- METHOD_DESCRIPTION: P. falciparum Dual Gamete Formation Assay (PfDGFA), male readout (exflagellation)
- Format: cell-based, Plasmodium falciparum NF54
- Protocol: […] The Pf DGFA was performed as described in Delves et al. 2016 [17]. […] Exflagellation was recorded by capturing 10 frames over 1 s under brightfield illumination using a x4 objective with a 1.5x zoom (effectively x6) attached to an automated Nikon Ti fluorescence microscope. […] The plates were then returned to the microscope and female gametes imaged at x6 using fluorescence microscopy. […]
VALUE_TYPE: Cytotox ratio Pf Male

# COMPOUND, MEASURED_VALUE
records = [
    ("FC(F)(F)c1ccc2[nH]c(-c3ccc(-c4ccc(CNCCN5CCNCC5)cc4)cc3)nc2c1.O=C(O)C(F)(F)F", 10.3),
    ("COc1ccc2nc(-c3cc(-c4ccc(NC(C)=O)cc4)cnc3N)[nH]c2c1", 14.0),
    ("c1ccc2sc(Sc3ncnc4sccc34)nc2c1", 250.0),
    ("COc1ccc2nc(N=C3NC4(c5ccccc5)NC(=Nc5nc6ccc(OC)cc6[nH]5)NC4(c4ccccc4)N3)[nH]c2c1.O=C(O)C(F)(F)F (stereo not shown)", 41.5),
    ("O=C(c1ccc([N+](=O)[O-])o1)N1CCC(Cc2ccc(C(F)(F)F)cc2)CC1", 58.0),
    ("CCCCNS(=O)(=O)c1ccc(NC(=O)c2cc([N+](=O)[O-])ccc2Cl)cc1", 270.3),
    ("CNC(=O)c1ccccc1Nc1nc(Nc2ccc(N3CCOCC3)cc2)ncc1Cl.Cl", 12.4),
    ("Cc1cc(C(=O)OCC(=O)Nc2c(C)n(C)n(-c3ccccc3)c2=O)c(C)n1-c1ccc(F)cc1", 31.4),
    ("Cl.O=C1Nc2ccc3ncccc3c2/C1=C/Nc1ccc(N2CCN(CCO)CC2)cc1", 225.8),
    ("C=CCN(C(=O)c1ccc(Cl)c([N+](=O)[O-])c1)c1nc(-c2ccccc2)cs1", 127.1),
    ("COc1cc2c(cc1S(=O)(=O)c1ccc(COc3ccc(C(F)(F)F)cc3)cc1)CNCC2.Cl", 12.0),
    ("CC(C)(C)c1ccc(-c2nc3c(ccc4nc(N)nc(N)c43)[nH]2)cc1.Cl", 17.1),
    ("N=C(N)NCCN(Cc1ccccc1)c1ccc(Cl)cc1", 72.7),
    ("Cc1cccc(Nc2nc(NCCCCN)nc3cc[nH]c(=O)c23)c1.O=C(O)C(F)(F)F", 75.4),
    ("CNC(=O)c1ccccc1Nc1nc(Nc2ccc(N3CCN(C)CC3)nc2)ncc1C.Cl", 13.8),
    ("CC(C)(CNC(=O)[C@H]1CCCCN1)c1nc(-c2ccc(Cl)c(O)c2)c(-c2ccncc2)[nH]1.Cl", 24.9),
    ("COCCn1c(Sc2ncnc3sccc23)nc2ccccc21", 81.3),
    ("Cc1ccc(-n2c(Sc3ncnc4sccc34)nnc2N2CCCC2)cc1", 207.3),
    ("CCC1=C[C@@H]2CN(C1)Cc1c([nH]c3ccccc13)[C@@](C(=O)OC)(c1cc3c(cc1OC)N(C)[C@H]1[C@@](O)(C(=O)OC)[C@H](O)[C@]4(CC)C=CCN5CC[C@]31[C@@H]54)C2.O=S(=O)(O)O", 4844.5),
    ("CN1CCC(NCc2ccc(-c3cnc(NCc4ccccc4)nc3)cc2)CC1.O=C(O)C(F)(F)F", 11.6),
    ("Cc1ccc(C)c(S(=O)(=O)NCC2CCN(Cc3ccc(O)cc3)CC2)c1.O=C(O)C(F)(F)F", 54.7),
    ("COc1ccc(Nc2ncc(C#N)c(Nc3ccccc3C(N)=O)n2)cc1N1CCN(C)CC1.Cl", 89.5),
    ("C#C[C@H]1O[C@@H](n2cnc3c(Nc4cc(Br)cc(C(F)(F)F)c4)ncnc32)[C@H](O)[C@@H]1O", 262.6),
    ("Cc1cc(Nc2ncc(C#N)c(Nc3ccccc3C(N)=O)n2)ccc1N1CCN(C)CC1.Cl", 45.1),
    ("Cl.NCC1(c2nc(-c3ccc(Cl)c(O)c3)c(-c3ccncc3)[nH]2)CCCCC1", 26.9),
    ("COc1cccc(C23NC(=Nc4nc5ccccc5[nH]4)NC2(c2cccc(OC)c2)NC(=Nc2nc4ccccc4[nH]2)N3)c1 (stereo not shown)", 19.8),
    ("CN1CCN(c2ccc(Nc3ncc(C#N)c(Nc4ccccc4C(N)=O)n3)cc2)CC1.Cl", 102.3),
    ("CN1CCN(c2ccc(Nc3ncc(Cl)c(Nc4cccnc4C(N)=O)n3)cc2)CC1.Cl", 11.9),
    ("O=C1Nc2ccccc2C1=NNC(=S)N1CCOCC1", 22.9),
    ("c1ccc2[nH]c(CN(Cc3nc4ccccc4[nH]3)Cc3nc4ccccc4[nH]3)nc2c1", 14.8),
    ("Cc1cccc(Nc2nc(N[C@@H]3CCCNC3)nc3cc[nH]c(=O)c23)c1.O=C(O)C(F)(F)F", 19.5),
    ("Cc1cccc2nc(-c3ccc(-c4cccc(CNCCN5CCNCC5)c4)cc3)[nH]c12.O=C(O)C(F)(F)F", 10.1),
    ("CC(C)(CN)c1nc(-c2ccc(Br)c(O)c2)c(-c2ccncc2)[nH]1.Cl", 43.5),
    ("CC(C)S(=O)(=O)N1CCN(Cc2ccc3c(c2)nc(NC(=O)c2ccsc2)n3C[C@H](O)c2ccccc2)CC1", 20.7),
]
